Target: GFRα1-RET (Homo sapiens, UniProt P56159)
Sequence (P56159 25-429 limits assumed): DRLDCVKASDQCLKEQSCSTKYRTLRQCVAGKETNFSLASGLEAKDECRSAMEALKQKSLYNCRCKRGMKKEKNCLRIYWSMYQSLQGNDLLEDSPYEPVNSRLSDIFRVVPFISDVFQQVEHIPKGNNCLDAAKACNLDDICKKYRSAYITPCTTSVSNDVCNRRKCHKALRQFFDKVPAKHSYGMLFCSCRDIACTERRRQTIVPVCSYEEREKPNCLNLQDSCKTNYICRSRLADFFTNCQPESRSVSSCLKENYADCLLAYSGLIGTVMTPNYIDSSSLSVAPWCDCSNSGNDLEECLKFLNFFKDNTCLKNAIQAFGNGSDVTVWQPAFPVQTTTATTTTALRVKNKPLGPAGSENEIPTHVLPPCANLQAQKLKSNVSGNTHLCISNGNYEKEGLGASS
Assay: Elk1 reporter-gene (luciferase) assay in cells expressing GFRα1-RET
Conditions: MG87 murine fibroblasts stably transfected with PathDetect Elk-1, GFRα1 and RET, 6 concentrations, agonist/activator activity
Each entry below carries its reported EC50.

Example results:
{"MOLECULE": "COCCOc1c(Cl)cc(S(=O)(=O)N(C)C(C)(C)C)cc1N1[C@@H]2CC[C@H]1CN(C(=O)c1ccc(F)cc1Cl)C2", "EC50": "< 1 µM"}
{"MOLECULE": "COc1ccc(S(=O)(=O)N2CCC(C(F)(F)F)CC2)cc1N1[C@@H]2CC[C@H]1CN(C(=O)c1ccc(F)cc1Cl)C2", "EC50": "< 1 µM"}
{"MOLECULE": "COc1ccc(S(=O)(=O)N(C)CC2CC2)cc1N1[C@@H]2CC[C@H]1CN(C(=O)c1ccc(F)cc1Cl)C2", "EC50": "< 1 µM"}

Query: Return EC50 measured with GFRα1-RET (Homo sapiens, UniProt P56159) given this molecule: COc1ccc(S(=O)(=O)N2CCN([C@H]3C[C@@H]3c3ccc(F)cc3)CC2)cc1N1[C@@H]2CC[C@H]1CN(C(=O)c1ccc(F)cc1Cl)C2 (racemic)
Reply: < 1 µM

Query: Return EC50 measured with GFRα1-RET (Homo sapiens, UniProt P56159) given this molecule: CCCN(C)S(=O)(=O)c1cccc(N2[C@@H]3CC[C@H]2CN(C(=O)c2ccc(F)cc2Cl)C3)c1
Reply: 1 to 10 µM

Query: Return EC50 measured with GFRα1-RET (Homo sapiens, UniProt P56159) given this molecule: CCCN(C)S(=O)(=O)c1ccc(OC)c(N2[C@@H]3CC[C@H]2CN(C(=O)c2ccc(F)cc2Cl)C3)c1
Reply: 1 to 10 µM

###

Target: GFRα1-RET (Homo sapiens, UniProt P56159)
Experiment: Elk1 reporter-gene (luciferase) assay in cells expressing GFRα1-RET
Details: MG87 murine fibroblasts stably transfected with PathDetect Elk-1, GFRα1 and RET, 6 concentrations, agonist/activator activity
RESULT_TYPE: EC50

{"COMPOUND": "CCCN(C)S(=O)(=O)c1ccc(F)c(N2[C@@H]3CC[C@H]2CN(C(=O)c2ccc(F)cc2Cl)C3)c1", "TESTED_TARGET": "GFRα1-RET (Homo sapiens, UniProt P56159)", "EC50": "1 to 10 µM"}

Query: Which measured EC50 value corresponds to COc1ccc(S(=O)(=O)N2CCC(CCc3ccccc3)CC2)cc1N1[C@@H]2CC[C@H]1CN(C(=O)c1cc(F)c(F)cc1Cl)C2 ?
Reply: < 1 µM

Query: Which measured EC50 value corresponds to O=C(c1ccc(F)cc1Cl)N1C[C@H]2CC[C@@H](C1)N2c1cc(S(=O)(=O)N2CCC(c3ccccc3)CC2)cc2c1OCC2 ?
Reply: < 1 µM

Query: Which measured EC50 value corresponds to COc1ccc(S(=O)(=O)N2CCC(=Cc3ccccc3)CC2)cc1N1[C@@H]2CC[C@H]1CN(C(=O)c1cc(F)c(F)cc1Cl)C2 ?
Reply: < 1 µM

Query: Which measured EC50 value corresponds to CC(C)(O)c1ccc(S(=O)(=O)N2CCC(c3ccccc3)CC2)cc1N1[C@@H]2CC[C@H]1CN(C(=O)c1ccc(F)cc1Cl)C2 ?
Reply: 1 to 10 µM

Query: Which measured EC50 value corresponds to O=C(c1ccc(F)cc1Cl)N1C[C@H]2CC[C@@H](C1)N2c1cc(S(=O)(=O)N2CCN(CCc3ccc(Cl)cc3)CC2)ccc1O ?
Reply: < 1 µM

Query: Which measured EC50 value corresponds to CC(C)(C)NS(=O)(=O)c1cc2c(c(N3[C@@H]4CC[C@H]3CN(C(=O)c3ccc(F)cc3Cl)C4)c1)OCC2 ?
Reply: < 1 µM

Query: Which measured EC50 value corresponds to O=C(c1ccc(F)cc1Cl)N1C[C@H]2CC[C@@H](C1)N2c1cc(S(=O)(=O)N2CCC(c3ccccc3)CC2)ccc1O ?
Reply: < 1 µM

Query: Which measured EC50 value corresponds to Cc1c(O)cc(S(=O)(=O)N2CCC(c3ccccc3)CC2)cc1N1[C@@H]2CC[C@H]1CN(C(=O)c1ccc(F)cc1Cl)C2 ?
Reply: < 1 µM

###

Each entry below carries its reported EC50.
Target: GFRα1-RET (Homo sapiens)
Assay: Elk1 reporter-gene (luciferase) assay in cells expressing GFRα1-RET
Settings: MG87 murine fibroblasts stably transfected with PathDetect Elk-1, GFRα1 and RET, 6 concentrations, agonist/activator activity

Example results:
{"MOLECULE": "Cc1cc(S(=O)(=O)N2CCC(c3ccc(F)cc3)CC2)cc(N2[C@@H]3CC[C@H]2CN(C(=O)c2ccc(F)cc2Cl)C3)c1O [compound 091]", "RESULT": "< 1 µM"}
{"MOLECULE": "CN(C(C)(C)C)S(=O)(=O)c1cc(Cl)c(OCCO)c(N2[C@@H]3CC[C@H]2CN(C(=O)c2ccc(F)cc2Cl)C3)c1 [compound 134]", "RESULT": "< 1 µM"}

Query: Which measured EC50 value corresponds to CCN(CC)S(=O)(=O)c1cnc(Cl)c(N2[C@@H]3CC[C@H]2CN(C(=O)c2ccc(F)cc2Cl)C3)c1 [compound 032] ?
Reply: 1 to 10 µM

Query: Which measured EC50 value corresponds to CC(C)(C)NS(=O)(=O)c1cc(Cl)c(Cl)c(N2[C@@H]3CC[C@H]2CN(C(=O)c2ccc(F)cc2Cl)C3)c1 [compound 075] ?
Reply: < 1 µM

Query: Which measured EC50 value corresponds to COc1ccc(S(=O)(=O)N2CCN(c3ncccn3)CC2)cc1N1[C@@H]2CC[C@H]1CN(C(=O)c1ccc(F)cc1Cl)C2 [compound 013] ?
Reply: 1 to 10 µM

Query: Which measured EC50 value corresponds to COc1ccc(S(=O)(=O)N2CCC(c3ccc(F)cc3)CC2)cc1N1[C@@H]2CC[C@H]1CN(C(=O)c1ccc(F)cc1Cl)C2 [compound 039] ?
Reply: < 1 µM

Query: Which measured EC50 value corresponds to COc1ccc(S(=O)(=O)N2CCC(c3cccc(-n4cccn4)c3)CC2)cc1N1[C@@H]2CC[C@H]1CN(C(=O)c1ccc(F)cc1Cl)C2 [compound 043] ?
Reply: < 1 µM

Query: Which measured EC50 value corresponds to CCCN(C)S(=O)(=O)c1ccc(OC)c(N2C3CCC2CN(C(=O)c2ccc(F)cc2C(F)(F)F)C3)c1 [compound 024] ?
Reply: 1 to 10 µM

###

Target: GFRα1-RET (Homo sapiens, UniProt P56159)
Assay: Elk1 reporter-gene (luciferase) assay in cells expressing GFRα1-RET
Details: MG87 murine fibroblasts stably transfected with PathDetect Elk-1, GFRα1 and RET, 6 concentrations, agonist/activator activity
RESULT_TYPE: EC50

Example results:
{"COMPOUND": "CCCN(C)S(=O)(=O)c1ccc(OC)c(N2CCN(C(=O)c3ccc(F)cc3Cl)CC2C)c1 (racemic) [compound 001]", "TESTED_TARGET": "GFRα1-RET (Homo sapiens, UniProt P56159)", "EC50": "1000 to 10000 nM"}
{"COMPOUND": "CN(C)Cc1ccc(S(=O)(=O)N2CCC(c3ccccc3)CC2)cc1N1[C@@H]2CC[C@H]1CN(C(=O)c1ccc(F)cc1Cl)C2 [compound 073]", "TESTED_TARGET": "GFRα1-RET (Homo sapiens, UniProt P56159)", "EC50": "1000 to 10000 nM"}
{"COMPOUND": "COc1ccc(S(=O)(=O)N2CCN(Cc3ccccc3)CC2)cc1N1[C@@H]2CC[C@H]1CN(C(=O)c1ccc(F)cc1Cl)C2 [compound 014]", "TESTED_TARGET": "GFRα1-RET (Homo sapiens, UniProt P56159)", "EC50": "1000 to 10000 nM"}
{"COMPOUND": "CC1(NS(=O)(=O)c2cc(Cl)c(O)c(N3[C@@H]4CC[C@H]3CN(C(=O)c3ccc(F)cc3Cl)C4)c2)COC1 [compound 108]", "TESTED_TARGET": "GFRα1-RET (Homo sapiens, UniProt P56159)", "EC50": "1000 to 10000 nM"}
{"COMPOUND": "COc1ccc(S(=O)(=O)N2C[C@H]3CCCC[C@H]3C2)cc1N1[C@@H]2CC[C@H]1CN(C(=O)c1ccc(F)cc1Cl)C2 [compound 015]", "TESTED_TARGET": "GFRα1-RET (Homo sapiens, UniProt P56159)", "EC50": "< 1000 nM"}

// next item, EC50 requested
Query: Which measured EC50 value corresponds to CCCN(C)S(=O)(=O)c1ccc(C2CC2)c(N2[C@@H]3CC[C@H]2CN(C(=O)c2ccc(F)cc2Cl)C3)c1 [compound 079] ?
Reply: < 1000 nM
